# system.name: HLA-A*32:07
# experimental.protocol: IEDB peptide-MHC binding, purified MHC/competitive/fluorescence; filed as Kd, often an IC50 or EC50 that approximates it; bounds were set here for any values at or beyond the usual limits of such assays
# condition: source organism: Francisella tularensis subsp. tularensis FSC198
assay.readout: Kd
For clarity, give the value followed by its unit.

Exam item: Checklist item: Kd tested on HLA-A*32:07, entry MGAGLVFPI , value?
Marked response: 44.8 nM

* * *

# system.name: HLA-A*26:01
# experimental.protocol: IEDB peptide-MHC binding, purified MHC/direct/fluorescence; filed as Kd, often an IC50 or EC50 that approximates it; bounds were set here for any values at or beyond the usual limits of such assays
# condition: source organism: Bacillus anthracis str. A0465
assay.readout: Kd

Exam item: Recorded Kd for YFENSDLNL , please?
Marked response: ≥ 20 µM

* * *

# system.name: HLA-A*03:01
# experimental.protocol: IEDB peptide-MHC binding, purified MHC/competitive/fluorescence; filed as Kd, often an IC50 or EC50 that approximates it; bounds were set here for any values at or beyond the usual limits of such assays
# condition: source organism: Brucella abortus S19
assay.readout: Kd

Exam item: Any idea what its Kd is? The sequence is KQWIVAGAI
Marked response: ≥ 20 µM

* * *

# system.name: HLA-A*26:01
# experimental.protocol: IEDB peptide-MHC binding, purified MHC/competitive/fluorescence; filed as Kd, often an IC50 or EC50 that approximates it; bounds were set here for any values at or beyond the usual limits of such assays
# condition: source organism: Brucella abortus S19
pKd: −log10 of the molar value.
assay.readout: pKd

Exam item: Quick one: pKd of KQWIVAGAI ?
Marked response: ≤ 4.70

* * *

# system.name: HLA-B*15:01
# experimental.protocol: IEDB peptide-MHC binding, purified MHC/direct/fluorescence; filed as Kd, often an IC50 or EC50 that approximates it; bounds were set here for any values at or beyond the usual limits of such assays
# condition: source organism: Influenza A virus (A/swine/Chiai/77-10/2001(H3N1))
assay.readout: pKd
The scale used: pKd is minus the common logarithm of the concentration in molar units.

Exam item: pKd lookup needed for VSFDQNLDY , thanks.
Marked response: 7.72

* * *

# system.name: HLA-B*44:02
# experimental.protocol: IEDB peptide-MHC binding, purified MHC/direct/fluorescence; filed as Kd, often an IC50 or EC50 that approximates it; bounds were set here for any values at or beyond the usual limits of such assays
# condition: source organism: Vibrio parahaemolyticus
pKd: −log10 of the molar value.
pKd values for the sequences below.

{"seq.string": "VMETENALF", "pKd": "≤ 4.70"}

Now look at this entry.
Exam item: Param item = NSDPEFNVL ; retrieve measured pKd.
Marked response: ≤ 4.70

* * *

# system.name: HLA-B*27:05
# experimental.protocol: IEDB peptide-MHC binding, purified MHC/direct/fluorescence; filed as Kd, often an IC50 or EC50 that approximates it; bounds were set here for any values at or beyond the usual limits of such assays
# condition: source organism: Orthohantavirus dobravaense
assay.readout: Kd (µM)
Form entry: value (µM) — number only.

Exam item: Requested read-out: Kd. Entry: RRNDGVVQY
Marked response: 0.146

* * *

# system.name: HLA-A*02:01
# experimental.protocol: IEDB peptide-MHC binding, purified MHC/competitive/fluorescence; filed as Kd, often an IC50 or EC50 that approximates it; bounds were set here for any values at or beyond the usual limits of such assays
# condition: source organism: Bacillus anthracis str. A0488
assay.readout: Kd

Exam item: Which Kd value belongs to FVMPIFEQI ?
Marked response: ≥ 5 µM
